Biological target: Androgen receptor (Homo sapiens) (UniProt P10275)
Sequence (P10275 whole entry): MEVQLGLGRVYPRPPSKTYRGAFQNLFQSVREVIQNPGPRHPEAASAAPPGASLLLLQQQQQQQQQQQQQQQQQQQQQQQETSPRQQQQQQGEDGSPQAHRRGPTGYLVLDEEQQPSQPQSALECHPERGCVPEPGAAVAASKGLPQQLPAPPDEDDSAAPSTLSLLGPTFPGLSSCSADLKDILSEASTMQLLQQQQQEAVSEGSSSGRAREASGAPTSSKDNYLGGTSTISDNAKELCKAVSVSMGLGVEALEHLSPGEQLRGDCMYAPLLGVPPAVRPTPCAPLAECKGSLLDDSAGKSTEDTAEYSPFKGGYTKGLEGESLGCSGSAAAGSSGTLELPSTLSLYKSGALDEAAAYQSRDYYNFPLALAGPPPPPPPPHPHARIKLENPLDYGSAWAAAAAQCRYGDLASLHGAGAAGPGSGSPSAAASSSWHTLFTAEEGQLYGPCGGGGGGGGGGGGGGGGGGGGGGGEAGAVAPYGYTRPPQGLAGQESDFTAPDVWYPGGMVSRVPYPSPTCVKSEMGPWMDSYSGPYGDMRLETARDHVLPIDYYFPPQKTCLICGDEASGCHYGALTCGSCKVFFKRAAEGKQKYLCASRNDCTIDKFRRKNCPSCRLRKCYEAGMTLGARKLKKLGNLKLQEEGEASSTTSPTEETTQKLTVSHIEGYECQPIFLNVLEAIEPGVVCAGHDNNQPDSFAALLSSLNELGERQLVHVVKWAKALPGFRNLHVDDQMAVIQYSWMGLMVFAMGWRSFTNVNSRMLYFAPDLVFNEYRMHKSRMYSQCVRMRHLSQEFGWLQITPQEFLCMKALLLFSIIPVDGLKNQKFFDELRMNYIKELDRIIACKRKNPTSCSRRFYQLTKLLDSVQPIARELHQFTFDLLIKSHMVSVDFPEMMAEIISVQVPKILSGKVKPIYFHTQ
Experiment: Agonist activity at human androgen receptor expressed in mouse C2C12 cells by androgen-specific response element-driven luciferase reporter gene assay relative to DHT
Type: cell-based
# Lookup of reported Emax keyed by entry

Smiles String: CO[C@@H]1C(c2ccc(C#N)c(Cl)c2C)=NN2C[C@H](O)C[C@@H]12
Emax: 75%
//
Smiles String: CCO[C@@H]1C(c2ccc(C#N)c(Cl)c2C)=NN2CC[C@H](O)[C@@H]12
Emax: 98.3%
//
Smiles String: Cc1c(C2=NN3CC[C@H](O)[C@H]3[C@@H]2O)ccc(C#N)c1Cl
Emax: 55%
//
Smiles String: CO[C@@H]1C(c2ccc(C#N)c(Cl)c2C)=NN2CC[C@H](O)[C@@H]12
Emax: 97%
//
Smiles String: Cc1c(C2=NN3CC[C@H](O)[C@H]3[C@@H]2OC(C)C)ccc(C#N)c1Cl
Emax: 102%

Could you share which Emax value was measured for CO[C@@H]1C(c2ccc(C#N)c(Cl)c2C)=NN2CC(F)(F)C[C@@H]12 ?
100%

Please give the result for CO[C@@H]1C(c2ccc(C#N)c(Cl)c2C)=NN2CC[C@@H](O)[C@@H]12 too.
86.7%

Please give the result for CO[C@H]1CCN2N=C(c3ccc(C#N)c(Cl)c3C)[C@@H](OC)[C@H]12 too.
82%

* * *

Assay: Skin drug retention by silicone and isopropyl myristate (70:30) containing artificial membranes based skin PAMPA method
The source made the active and inactive calls. The calls are words filed in the database; no cut-off is given here.
Select the matching outcome among yes (active), no (inactive)

Look over these answered cases.
Molecule: CO[C@@H]1C(c2ccc(C#N)c(Cl)c2C)=NN2CC[C@H](O)[C@@H]12
Category: no
//
Molecule: CO[C@@H]1C(c2ccc(C#N)c(Cl)c2C)=NN2CC(F)(F)C[C@@H]12
Category: yes
//
Molecule: CCO[C@@H]1C(c2ccc(C#N)c(Cl)c2C)=NN2CC[C@H](O)[C@@H]12
Category: no

Which outcome was assigned to C[C@]12CC[C@H]3[C@@H](CCC4=CC(=O)CC[C@@]43C)[C@@H]1CC[C@@H]2O [TESTOSTERONE] in this test?
no

Please give the result for CO[C@@H]1C(c2ccc(C#N)c(Cl)c2C)=NN2CC[C@@H](F)[C@@H]12 too.
no

* * *

Biological target: Androgen receptor (Homo sapiens) (UniProt P10275)
Assay: Agonist activity at human androgen receptor expressed in mouse C2C12 cells by androgen-specific response element-driven luciferase reporter gene assay relative to DHT
Type: cell-based
Assay Endpoint: Emax (%)
Write the number in % without appending the unit.

Here are 3 molecules together with their reported answers.
Smiles String: CO[C@@H]1C(c2ccc(C#N)c(Cl)c2C)=NN2CC[C@H](F)[C@@H]12
Reported Result: 93.5

Smiles String: CO[C@@H]1C(c2ccc(C#N)c(Cl)c2C)=NN2CC(=O)C[C@@H]12
Reported Result: 93

Smiles String: COCCO[C@@H]1C(c2ccc(C#N)c(Cl)c2C)=NN2CC[C@H](O)[C@@H]12
Reported Result: 82

Could you share which Emax value was measured for CO[C@@H]1C(c2ccc(C#N)c(Cl)c2C)=NN2CC[C@@H](F)[C@@H]12 ?
98

Please give the result for CO[C@@H]1C(c2ccc(C#N)c(Cl)c2C)=NN2C[C@@H](F)C[C@@H]12 too.
86

All values here come from ChEMBL document CHEMBL3351728.
